Cited source for all entries: ChEMBL document CHEMBL5120749

- System: MCF7
- TEST: cells
- SETTINGS: Homo sapiens
- Description: Antiproliferative activity against human MCF7 cells
PROPERTY LABEL: IC50 (nM)

I = O=C(c1ccc(OCCN2C=Cc3ccccc3C2)cc1)c1c(-c2ccc(O)cc2)oc(=O)c2cc(O)ccc12
II = Nc1ccc(-c2c(C(=O)c3ccc(OCCN4CC(C(=O)O)=CCC4=O)cc3)c3ccc(O)cc3[nH]c2=O)cc1
Out of I and II , name the one with the higher IC50. Indicate your choice by writing its label.
I

P = CC(CN1CCCC2CCCNC21)OCC(=O)N1Nc2cc(O)ccc2C2COc3cc(O)ccc3C21 (centres undefined)
Q = Nc1ccc(-c2c(C(=O)c3ccc(OCCNS(=O)(=O)O)cc3)c3ccc(O)cc3oc2=O)cc1
R = Cc1cc(C(=O)CNc2c(-c3ccc(O)cc3)c(=O)oc3cc(O)ccc23)ccc1OCCN1CCC=C(C(=O)O)C1
Ordering: ascending IC50. A complete answer lists every label in the requested sequence.
R, Q, P
(R: 0.25 nM, Q: 0.45 nM, P: 0.73 nM)

----------
- SUBJECT OF TEST: UniProtKB P03372
- SETTINGS: filed as antagonist
- Description: Antagonist activity at ERalpha (unknown origin)
PROPERTY LABEL: Ka (nM)

>  <COMPOUND>
CC(CN1CCCC2CCCNC21)OCC(=O)N1Nc2cc(O)ccc2C2COc3cc(O)ccc3C21 (stereo not given)

>  <UNIT ANNOTATION>
nM

>  <Ka>
0.15

$$$$
>  <COMPOUND>
CNCCOc1ccc(N2Nc3c(c(=O)oc4cc(O)ccc34)-c3ccc(O)cc32)cc1

>  <UNIT ANNOTATION>
nM

>  <Ka>
36.1

$$$$
>  <COMPOUND>
Nc1ccc(-c2c(C(=O)c3ccc(OCCN4CC(C(=O)O)=CCC4=O)cc3)c3ccc(O)cc3[nH]c2=O)cc1

>  <UNIT ANNOTATION>
nM

>  <Ka>
0.04

$$$$
>  <COMPOUND>
Cc1cc(C(=O)CNc2c(-c3ccc(O)cc3)c(=O)oc3cc(O)ccc23)ccc1OCCN1CCC=C(C(=O)O)C1

>  <UNIT ANNOTATION>
nM

>  <Ka>
0.04

$$$$
>  <COMPOUND>
Cc1cc(N2Nc3c(c(=O)oc4cc(O)ccc34)-c3ccc(O)cc32)ccc1OCCN1CCC=C(C(=O)O)C1

>  <UNIT ANNOTATION>
nM

>  <Ka>
32.3

$$$$
>  <COMPOUND>
O=C(c1ccc(OCCN2C=Cc3ccccc3C2)cc1)c1c(-c2ccc(O)cc2)oc(=O)c2cc(O)ccc12

>  <UNIT ANNOTATION>
nM

>  <Ka>
0.16

$$$$
>  <COMPOUND>
O=C(c1ccc(OCCN2C(=O)CCC2=O)cc1)c1c(-c2ccc(O)cc2)oc(=O)c2cc(O)ccc12

>  <UNIT ANNOTATION>
nM

>  <Ka>
0.17

$$$$
>  <COMPOUND>
O=C(COCN1CCCCC1)CN1Nc2cc(O)ccc2-c2c1c1ccc(O)cc1oc2=O

>  <UNIT ANNOTATION>
nM

>  <Ka>
0.17

$$$$

a = O=C(COCN1CCCCC1)CN1Nc2c(c(=O)oc3cc(O)ccc23)-c2ccc(O)cc21
b = Nc1ccc(-c2c(C(=O)c3ccc(OCCNS(=O)(=O)O)cc3)c3ccc(O)cc3oc2=O)cc1
Out of a and b , name the one with the higher Ka. Indicate your choice by writing its label.
a
(a: 84.3 nM, b: 0.08 nM)

----------
- SUBJECT OF TEST: Estrogen receptor (Homo sapiens, UniProt P03372)
- Sequence (P03372 whole entry): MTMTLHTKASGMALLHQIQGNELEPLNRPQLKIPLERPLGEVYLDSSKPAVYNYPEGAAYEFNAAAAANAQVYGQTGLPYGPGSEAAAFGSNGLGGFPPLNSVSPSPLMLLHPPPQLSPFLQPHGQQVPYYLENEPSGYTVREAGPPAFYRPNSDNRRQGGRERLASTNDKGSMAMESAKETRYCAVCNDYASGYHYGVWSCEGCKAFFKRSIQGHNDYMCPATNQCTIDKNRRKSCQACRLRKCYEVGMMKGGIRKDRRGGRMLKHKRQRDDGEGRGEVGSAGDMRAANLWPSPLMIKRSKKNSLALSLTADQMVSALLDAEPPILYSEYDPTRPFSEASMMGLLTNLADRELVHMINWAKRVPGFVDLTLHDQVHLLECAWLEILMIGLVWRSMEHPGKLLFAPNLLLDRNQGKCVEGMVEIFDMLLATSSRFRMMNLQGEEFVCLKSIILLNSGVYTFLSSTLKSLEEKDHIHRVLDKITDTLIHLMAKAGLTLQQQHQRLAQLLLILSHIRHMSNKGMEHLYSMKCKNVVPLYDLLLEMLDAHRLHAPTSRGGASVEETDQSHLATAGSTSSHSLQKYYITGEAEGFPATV
PROPERTY LABEL: IC50 (nM)

# annotated cases, reported IC50 shown
>  <MOLECULE>
CC(CN1CCCC2CCCNC21)OCC(=O)N1NC2c3ccc(O)cc3OCC2c2ccc(O)cc21 (stereo not drawn)

>  <IC50 (nM)>
168

$$$$
>  <MOLECULE>
CNCCOc1ccc(N2Nc3cc(O)ccc3-c3c2c2ccc(O)cc2oc3=O)cc1

>  <IC50 (nM)>
0.33

$$$$
>  <MOLECULE>
Nc1ccc(-c2c(C(=O)c3ccc(OCCN4CC(C(=O)O)=CCC4=O)cc3)c3ccc(O)cc3[nH]c2=O)cc1

>  <IC50 (nM)>
37

$$$$

a = CC(CN1CCCC2CCCNC21)OCC(=O)N1Nc2cc(O)ccc2C2COc3cc(O)ccc3C21 (stereo not drawn)
b = Cc1cc(C(=O)C2=C(c3ccc(O)cc3)COc3cc(O)ccc32)ccc1OCCN1C=Cc2cccnc2C1
c = Cc1cc(C(=O)CNc2c(-c3ccc(O)cc3)c(=O)oc3cc(O)ccc23)ccc1OCCN1CCC=C(C(=O)O)C1
d = Cc1cc(N2Nc3c(c(=O)oc4cc(O)ccc34)-c3ccc(O)cc32)ccc1OCCN1CCC=C(C(=O)O)C1
e = Nc1ccc(-c2c(C(=O)c3ccc(OCCN4CC(C(=O)O)=CCC4=O)cc3)c3ccc(O)cc3oc2=O)cc1
Task field, ranking: reported IC50, descending order. A complete answer lists every label in the requested sequence.
d, e, b, a, c
(d: 144 nM, e: 39 nM, b: 1.05 nM, a: 0.67 nM, c: 0.19 nM)

----------
Parameter 'readout' = IC50; parameter 'system' = Estrogen receptor (Homo sapiens).
PROPERTY LABEL: IC50 (nM)

>  <MOLECULE SMILES>
CNCCOc1ccc(N2Nc3c(c(=O)oc4cc(O)ccc34)-c3ccc(O)cc32)cc1

>  <SUBJECT OF TEST>
Estrogen receptor (Homo sapiens)

>  <IC50 (nM)>
161

$$$$
>  <MOLECULE SMILES>
O=C(c1ccc(OCCN2C(=O)CCC2=O)cc1)c1c(-c2ccc(O)cc2)oc(=O)c2cc(O)ccc12

>  <SUBJECT OF TEST>
Estrogen receptor (Homo sapiens)

>  <IC50 (nM)>
0.75

$$$$
>  <MOLECULE SMILES>
O=C(c1ccc(OCCN2C=Cc3ccccc3C2)cc1)c1c(-c2ccc(O)cc2)oc(=O)c2cc(O)ccc12

>  <SUBJECT OF TEST>
Estrogen receptor (Homo sapiens)

>  <IC50 (nM)>
0.71

$$$$

I = O=C(COCN1CCCCC1)CN1Nc2cc(O)ccc2-c2c1c1ccc(O)cc1oc2=O
II = Nc1ccc(-c2c(C(=O)c3ccc(OCCNS(=O)(=O)O)cc3)c3ccc(O)cc3oc2=O)cc1
III = Cc1cc(C(=O)C2=C(c3ccc(O)cc3)COc3cc(O)ccc32)ccc1OCCN1Cc2cccnc2C1
IV = O=C(COCN1CCCCC1)CN1Nc2c(c(=O)oc3cc(O)ccc23)-c2ccc(O)cc21
Ordering: ascending IC50. A complete answer lists every label in the requested sequence.
II, I, III, IV
(II: 0.39 nM, I: 0.76 nM, III: 1.13 nM, IV: 375 nM)

----------
- TEST: in vivo
- SETTINGS: rat, po, 50 mg/kg
PROPERTY LABEL: bioavailability (%)

>  <MOLECULE SMILES>
O=C(c1ccc(OCCN2CCCCC2)cc1)c1c(-c2ccc(O)cc2)sc2cc(O)ccc12

>  <UNIT ANNOTATION>
%

>  <bioavailability>
96

$$$$
>  <MOLECULE SMILES>
Cc1cc(C(=O)CNc2c(-c3ccc(O)cc3)c(=O)oc3cc(O)ccc23)ccc1OCCN1CCC=C(C(=O)O)C1

>  <UNIT ANNOTATION>
%

>  <bioavailability>
96

$$$$
>  <MOLECULE SMILES>
Nc1ccc(-c2c(C(=O)c3ccc(OCCNS(=O)(=O)O)cc3)c3ccc(O)cc3oc2=O)cc1

>  <UNIT ANNOTATION>
%

>  <bioavailability>
94

$$$$
>  <MOLECULE SMILES>
Nc1ccc(-c2c(C(=O)c3ccc(OCCN4CC(C(=O)O)=CCC4=O)cc3)c3ccc(O)cc3[nH]c2=O)cc1

>  <UNIT ANNOTATION>
%

>  <bioavailability>
91

$$$$
>  <MOLECULE SMILES>
CC/C(=C(\c1ccc(O)cc1)c1ccc(OCCN(C)C)cc1)c1ccccc1

>  <UNIT ANNOTATION>
%

>  <bioavailability>
94

$$$$

----------
- System: MCF7
- TEST: cells
- SETTINGS: Homo sapiens
PROPERTY LABEL: IC50 (nM)

>  <MOLECULE SMILES>
O=C(c1ccc(OCCN2CCCCC2)cc1)c1c(-c2ccc(O)cc2)sc2cc(O)ccc12

>  <UNIT ANNOTATION>
nM

>  <MEASURED NUMBER>
0.89

$$$$
>  <MOLECULE SMILES>
O=C(c1ccc(OCCN2C(=O)CCC2=O)cc1)c1c(-c2ccc(O)cc2)oc(=O)c2cc(O)ccc12

>  <UNIT ANNOTATION>
nM

>  <MEASURED NUMBER>
0.93

$$$$
>  <MOLECULE SMILES>
O=C(COCN1CCCCC1)CN1Nc2cc(O)ccc2-c2c1c1ccc(O)cc1oc2=O

>  <UNIT ANNOTATION>
nM

>  <MEASURED NUMBER>
1.03

$$$$
>  <MOLECULE SMILES>
CC/C(=C(\c1ccc(O)cc1)c1ccc(OCCN(C)C)cc1)c1ccccc1

>  <UNIT ANNOTATION>
nM

>  <MEASURED NUMBER>
1.2

$$$$
